Test system: plasmid DNA (pRSETB)
assay name: Binding between antimicrobial peptide and DNA (gel electrophoresis)
measurement parameters: peptide/DNA ratio 0.25:1 to 4:1, 10 minutes at 37° C.
Where no end group is shown, it is not given here.

>  <substance>
GILGKLWEGVKSIF-NH2 [Hp1404]

>  <binding to DNA>
did not bind to any DNA

$$$$
>  <substance>
ILKKLLKGVKSI-NH2 [Hp1404-T1c]

>  <binding to DNA>
did not bind to any DNA

$$$$
>  <substance>
ILKKLLKKVKKI-NH2 [Hp1404-T1e]

>  <binding to DNA>
bind to DNA

$$$$
>  <substance>
ILKKLLKKVKSI-NH2 [Hp1404-T1d]

>  <binding to DNA>
bind to DNA

$$$$
